Reported values of folding stability dG for individual entries
B1: EHEE_rd3_0053 (parent)
chain: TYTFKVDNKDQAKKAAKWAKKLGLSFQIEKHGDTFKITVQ

Variants of: B1
Experiment: folding stability dG (cDNA display proteolysis); higher = more stable
Conditions: PBS, room temperature
Give just the number in kcal/mol; leave the unit off.

1) V6M = 1.68

Given the variant Q27S , what is its reported folding stability dG? 2.61

Given the variant F26P , what is its reported folding stability dG? 0.848

Values compiled from the MegaScale stability set (Tsuboyama et al. 2023).
